- Tested on: diploidem Roggen Sorte Voskhod 2
- experiment.summary: field test of gametocidal activity (sterilisation of anthers)
- Assay type: in vivo
- run.parameters: V. Periode, 1%ige wäßrige Emulsion, 10 kg/ha, control = 100
We begin with a simple list: items and their reported Prozentsatz des Ansetzens der Körner bei freier Bestäubung.

Look over these answered cases.
CC1C=CCCC1C(=O)O (stereo not drawn) [Beispiel 78] = 95,6%
CC1C=CCCC1C(=O)O (stereo not drawn) [Beispiel 79] = 95,0%
CCOC(=O)c1ccccc1C(=O)OCC = 97,8%
CC(C)COC(=O)c1ccccc1C(=O)OCC(C)C = 96,7%
COC(=O)C1CCC=CC1C (stereo not drawn) = 91,9%

// below: Prozentsatz des Ansetzens der Körner bei freier Bestäubung requested for another compound
Specify reported Prozentsatz des Ansetzens der Körner bei freier Bestäubung for the compound shown: `C=CCOC(=O)c1ccccc1C(=O)OCC=C`
97,9%
